# Study system: T1, human LRRC15 extracellular domain with C-terminal His tag (human, UniProt Q8TF66 22-538)
# T1 construct: Recombinant, made in HEK293; the entry holds the extracellular domain and the His tag; SPR analyte; also called TPP-1545; hLRRC15 CT-His
# T1 sequence: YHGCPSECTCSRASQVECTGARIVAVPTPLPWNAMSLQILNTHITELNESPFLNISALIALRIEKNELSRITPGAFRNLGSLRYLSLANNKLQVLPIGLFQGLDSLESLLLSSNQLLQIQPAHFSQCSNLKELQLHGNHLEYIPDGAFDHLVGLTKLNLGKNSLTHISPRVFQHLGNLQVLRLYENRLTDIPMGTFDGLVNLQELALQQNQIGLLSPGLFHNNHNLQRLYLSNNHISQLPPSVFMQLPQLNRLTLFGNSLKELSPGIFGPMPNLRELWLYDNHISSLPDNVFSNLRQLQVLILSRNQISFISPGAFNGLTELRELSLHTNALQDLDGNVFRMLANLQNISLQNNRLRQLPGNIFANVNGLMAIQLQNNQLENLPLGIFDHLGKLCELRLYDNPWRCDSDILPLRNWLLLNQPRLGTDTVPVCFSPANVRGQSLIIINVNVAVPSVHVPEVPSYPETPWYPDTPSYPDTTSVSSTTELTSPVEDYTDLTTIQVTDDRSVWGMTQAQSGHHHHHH
# Protocol: calculated from SPR kd, 10°C
Complex Half Life by entry:

Binder	Unit spec	Complex Half Life
TPP-17078 (antibody, human IgG1, kappa, V domains shown, also called 438H-M308-H05-hIgGkappa) VH: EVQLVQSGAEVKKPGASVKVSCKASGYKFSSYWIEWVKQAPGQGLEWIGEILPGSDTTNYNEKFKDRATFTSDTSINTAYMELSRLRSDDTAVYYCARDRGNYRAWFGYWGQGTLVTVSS VL: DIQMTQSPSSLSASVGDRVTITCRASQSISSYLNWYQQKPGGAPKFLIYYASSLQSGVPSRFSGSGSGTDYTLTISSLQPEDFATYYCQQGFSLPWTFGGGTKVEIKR	h	14.8
TPP-12942 (antibody, human IgG1, kappa, V domains shown, Prior art humanized IgG1 kappa antibody, used as comparator; also called huM25; huM25-hIgG1Kappa) VH: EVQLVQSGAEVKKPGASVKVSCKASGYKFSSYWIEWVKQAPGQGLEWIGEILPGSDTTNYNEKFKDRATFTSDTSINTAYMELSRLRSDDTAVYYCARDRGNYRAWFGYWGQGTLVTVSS VL: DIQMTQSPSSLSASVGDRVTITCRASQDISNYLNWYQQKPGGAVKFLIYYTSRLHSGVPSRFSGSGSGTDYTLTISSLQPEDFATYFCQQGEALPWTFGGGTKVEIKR	h	0.963
TPP-14389 (antibody, human IgG1, kappa, V domains shown, also called 13612-rec02-hIgG1Kappa) VH: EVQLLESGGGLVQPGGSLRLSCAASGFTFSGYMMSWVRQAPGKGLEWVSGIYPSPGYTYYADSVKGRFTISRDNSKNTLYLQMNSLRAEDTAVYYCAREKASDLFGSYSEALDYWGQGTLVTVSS VL: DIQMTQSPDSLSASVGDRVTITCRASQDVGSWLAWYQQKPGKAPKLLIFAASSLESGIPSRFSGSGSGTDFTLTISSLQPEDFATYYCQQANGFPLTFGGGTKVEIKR	h	1.6
TPP-14392 (antibody, human IgG1, kappa, V domains shown, also called 13612-rec05-hIgG1Kappa) VH: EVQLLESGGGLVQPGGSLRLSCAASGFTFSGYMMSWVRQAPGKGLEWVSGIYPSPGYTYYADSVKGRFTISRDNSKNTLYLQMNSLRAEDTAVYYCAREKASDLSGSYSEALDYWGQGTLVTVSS VL: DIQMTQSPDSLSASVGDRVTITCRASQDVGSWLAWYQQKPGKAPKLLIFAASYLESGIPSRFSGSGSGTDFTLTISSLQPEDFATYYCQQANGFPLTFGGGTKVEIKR	h	3.21
